Entry source: patent US20230271950A1

So I've got a bunch of compounds here, and I need their MIC values.
tested on: C. difficile; test: MIC by broth microdilution against C. difficile strains; format: cell-based, Clostridioides difficile; settings: Clostridioides difficile, C. difficile NR49310; Table 7; read-out: MIC
Give the number; µg/mL is assumed, so skip it.

O=C(Nc1ncco1)c1cc(Oc2cccc(OC(F)(F)F)c2)ccn1 [Compound 108] yielded MIC of 0.5

O=C(Nc1ncco1)c1cc(-c2ccc(Cl)c(Cl)c2)ccn1 [Compound 87] yielded MIC of 0.125

O=C(Nc1ncco1)c1ccnc(-c2ccc(Cl)c(Cl)c2)c1 [Compound 4] yielded MIC of 0.0625
